FYI, the data here is from PubChem BioAssay AID1159580.

# ASSAY OVERVIEW: chemical genetic growth profiling, strain panel (AID 1159580);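 also: tested at 20 µM; growth read once vehicle control cultures reached saturation at 30 °C; 1 = growth at the plate median or of vehicle wells; lower values mean less growth of the strain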
# STUDY CONDITIONS: S. cerevisiae deletion strains, growth OD, locus YHR094C, strain hxt1, stronger effect = lower value
Hit rate of the full screen: of about 5,500 compounds, about 2,000 (36%) were called active. About 18% were inconclusive and are not listed. Some of the results follow.
ASSAY READOUT: normalized growth

COMPOUND	MEASURED RESULT
CC(C)COCC(CN(Cc1ccccc1)c1ccccc1)N1CCCC1 (stereo not given)	0.987 (inactive)
NC(N)=NS(=O)(=O)c1ccc(N)cc1	0.988 (inactive)
O=C(O)c1cc2cc(Cc3cccnc3)ccc2o1	0.995 (inactive)
Cc1cc(NC(=O)C2=C(O)c3ccccc3S(=O)(=O)N2C)no1	0.945 (inactive)
C=C1CCC(OC(C)=O)/C(C)=C/C[C@@H]2[C@@H]1CC2(C)C (stereo not given in full)	1.01 (inactive)
C[C@@H]1C(=O)OC2[C@H](O)C34[C@@H]5OC(=O)[C@@]3(O[C@@H]3OC(=O)[C@H](O)[C@@]34[C@H](C(C)(C)C)[C@H]5O)[C@]21O (stereo not given in full)	1.01 (inactive)
CC1=CC2C(CC1=O)C(C)=CCC2C(C)C (stereo not given)	0.989 (inactive)
C=C1CCC2C(CC2(C)C)C(=O)CCC1O (stereo not given)	1.01 (inactive)
C=C1CCC(C2CC(=O)OC2=O)C(=O)CCC2C1CC2(C)C (stereo not given)	0.995 (inactive)
C=C1C(C)C2C(Cc3ccccc3)NC(=O)C23OC(=O)/C=C/C(O)CCCC(C)C/C=C/C3C1O (stereo not given)	1.01 (inactive)
